Overview of recorded EC50 for various compounds
biological target: SARM1 protein in iSARM1 (HEK293) cells (Homo sapiens); construct: The full-length SARM1 was synthesized into the pUC57 plasmid by WZ Biosciences Inc., and PCR was performed using pUC57-SARM1 as a DNA template; test: Inhibitory activity in inducible SARM1 overexpressing cell line, intracellular cADPR level; settings: activator CZ-48 100 μM, cADPR content
Sequence (Q6SZW1 28-724): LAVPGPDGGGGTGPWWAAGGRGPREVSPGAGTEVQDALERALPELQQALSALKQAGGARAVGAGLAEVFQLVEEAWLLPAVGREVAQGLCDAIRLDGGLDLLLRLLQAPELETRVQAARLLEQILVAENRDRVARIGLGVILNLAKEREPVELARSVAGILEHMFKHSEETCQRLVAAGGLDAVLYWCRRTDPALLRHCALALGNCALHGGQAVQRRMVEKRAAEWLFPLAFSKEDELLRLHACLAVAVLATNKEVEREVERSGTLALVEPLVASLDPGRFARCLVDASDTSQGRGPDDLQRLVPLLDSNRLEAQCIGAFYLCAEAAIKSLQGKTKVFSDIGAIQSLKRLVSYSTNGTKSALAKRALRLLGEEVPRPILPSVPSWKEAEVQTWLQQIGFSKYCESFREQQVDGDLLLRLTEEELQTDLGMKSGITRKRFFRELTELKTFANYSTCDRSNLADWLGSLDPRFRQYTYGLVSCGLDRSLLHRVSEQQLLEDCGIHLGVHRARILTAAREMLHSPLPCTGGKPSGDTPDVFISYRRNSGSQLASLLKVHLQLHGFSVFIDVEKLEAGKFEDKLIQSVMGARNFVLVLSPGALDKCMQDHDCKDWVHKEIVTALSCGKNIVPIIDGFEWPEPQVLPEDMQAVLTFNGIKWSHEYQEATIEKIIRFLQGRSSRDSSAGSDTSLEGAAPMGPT

{"columns": ["smiles_representation", "EC50"],
 "data": [
  ["Cc1ncsc1-c1ccc(CNC(=O)[C@@H]2C[C@@H](O)CN2C(=O)[C@@H](NC(=O)COCCOCCOCC(=O)N(C)c2ccc3ncc(-c4ccccc4Cl)n3c2)C(C)(C)C)cc1", "< 1000 nM"],
  ["O=C(Cc1ccc(Cl)cc1)Nc1cccn2c(-c3ccncc3)cnc12", "1000 to 10000 nM"]
]}

Would you kindly look at the next entry?
Q: Which EC50 is reported for this compound? `CN(C(=O)OC(C)(C)C)c1ccc2ncc(-c3cccc(NC(=O)COCCOCC(=O)Nc4cccc(-c5cnc6ccc(N(C)C(=O)OC(C)(C)C)cn56)c4)c3)n2c1`
Ans: < 1000 nM
